Sourced from PubChem BioAssay (NCI)

# System: HOP-18 NSCLC
# assay text: NCI tumour cell line growth inhibition, 48 h
measurement type: TGI

Example results:
molecule	measurement type	recorded measurement
O=C(Nc1cc(Cl)c(Cl)cc1Cl)C(=O)C1C=CCS1(=O)=O (stereo unspecified)	TGI	> 100 µM
COc1ccc(-c2onc(-c3ccc([N+](=O)[O-])cc3)c2C2=NCCN2)cc1	TGI	> 100 µM
COc1ccccc1N1C(=O)/C(=C/c2ccc(N(CCC#N)CCC#N)cc2C)N=C1c1cc([N+](=O)[O-])ccc1Cl	TGI	> 100 µM
COC1CC(C)C(OC)C2=CC(=O)C=C(NC(=O)/C(C)=C/C=C\C(C)C(OC(N)=O)/C(C)=C\C(C)C1OC)C2=O (stereo unspecified)	TGI	15.7 µM
CC(=O)OCC1OC(N2C(=O)C(=O)c3cc(C)ccc32)C(OC(C)=O)C(OC(C)=O)C1OC(C)=O (stereo unspecified)	TGI	> 100 µM
CCCCc1c2c(nc3c1CCC/C3=C\c1ccccc1)C(=O)CCC2	TGI	79 µM
C=CC1(C(=O)O)CCC(C(C)(C)C)CC1 (stereo unspecified)	TGI	> 100 µM
O=S(=O)(N/N=C/c1ccc(/C=N/NS(=O)(=O)c2ccccc2)cc1)c1ccccc1	TGI	> 100 µM

INPUT: Look up TGI of O=C1OC(CC(=O)c2ccc(Cl)c(Cl)c2)C(Cl)=C1Cl (stereo unspecified) and report it.
OUTPUT: > 100 µM

INPUT: Look up TGI of CC1=C(C(=O)Nc2ccccc2C)C(c2ccc(Cl)c(Cl)c2)C(C(=O)Nc2ccccc2C)=C(C)N1 and report it.
OUTPUT: 69.4 µM

INPUT: Look up TGI of CCOC(=O)NC(=O)c1cn(CC(=O)NCC(=O)NCC(=O)NCCCN2CCN(CCCNC(=O)CNC(=O)CNC(=O)Cn3cc(C(=O)NC(=O)OCC)c(=O)[nH]c3=O)CC2)c(=O)[nH]c1=O and report it.
OUTPUT: > 100 µM

====

# System: ACHN renal
# assay text: NCI tumour cell line growth inhibition, 48 h; in the data active means GI50 below about 0.43 µM; inactive means the rest
In this exercise, the only acceptable responses are 1 (active), -1 (inactive)

Worked examples, 3 molecules total:
> print(dat)
                                   molecule  discrete.label
1  C=CCC(N[C@H](CO)c1ccccc1)c1ccc2ccccc2n1 (some centres undefined)              -1
2  O=C1Nc2ccc(C(=O)c3ccco3)cc2/C1=C/c1cc(Cl)c(O)c(Cl)c1              -1
3  CC(C)=CCCC(C)c1ccc(C)c2c1OCN(CC1CCNCC1)C2 (centres undefined)              -1

INPUT: Test call for this molecule, please: O=C1c2ccccc2-c2c1c1ccccc1c(=O)n2CCCNCCCn1ccnc1
OUTPUT: 1

INPUT: Test call for this molecule, please: CC(C)c1ccc(C(=O)Nc2nc3ccc(O)cc3s2)cc1
OUTPUT: 1

INPUT: Test call for this molecule, please: O=c1c2c(nc3n1CCS3)[nH]c1ccccc12
OUTPUT: -1

INPUT: Test call for this molecule, please: COc1cc(Nc2nccc(Nc3ccc4c(C)[nH]nc4c3)n2)cc(OC)c1OC
OUTPUT: -1

INPUT: Test call for this molecule, please: CCOC(=O)C(N)C[S][Sn]([CH3])([CH3])[Cl] (centres undefined)
OUTPUT: -1

INPUT: Test call for this molecule, please: COc1cc(/C=C/C(=O)CC(=O)/C=C/c2cc(OC)c(OC)c(OC)c2)cc(OC)c1OC
OUTPUT: -1

INPUT: Test call for this molecule, please: CC1=C2[C@@H](CC1)[C@]1(C)O[C@@](C3CCCCC3)(C[C@H]1OC(=O)CO)[C@H]2OC(=O)/C=C/c1ccccc1
OUTPUT: 1

INPUT: Test call for this molecule, please: C=C1C(=O)O[C@H]2[C@H]1CC/C(CNC(=O)c1cc3cc(OC)ccc3[nH]1)=C\CC[C@@]1(C)O[C@@H]21
OUTPUT: -1
